test system: Plasmodium falciparum; assay: Antimalarial activity against blood stage forms of Plasmodium falciparum 3D7; format: functional, organism-based
pIC50: −log10 of the molar value.
Please note: true applies when pIC50 is 7 or greater, and false applies otherwise.

Query: Determine whether measured pIC50 meets or exceeds 7 for O=c1cc(-c2ccc(Cc3ccc(OC(F)(F)F)cc3)cc2)[nH]c2ccccc12
Result: true

Query: Decide: pIC50 of CCOC(=O)c1c(-c2ccc(Cc3ccc(OC(F)(F)F)cc3)cc2)[nH]c2ccccc2c1=O >= 7?
Result: true

Query: Does pIC50 meet or surpass 7 for Cc1c(-c2ccc(Cc3ccc(OC(F)(F)F)cc3)cc2)[nH]c2ccc(C(F)(F)F)cc2c1=O ?
Result: false

Query: API: above_or_equal(metric=pIC50, cutoff=7) for item Cc1c(-c2ccc(Cc3ccc(OC(F)(F)F)cc3)cc2)c(=O)c2ccccc2n1O
Result: false

Query: In plain terms: is recorded pIC50 at least 7 for O=c1cc(-c2ccc(OC(F)(F)F)cc2)[nH]c2ccccc12 ?
Result: false

###

test system: Plasmodium falciparum; experiment: Antimalarial activity against blood stage forms of Plasmodium falciparum 3D7; format: functional, organism-based
pIC50: −log10 of the molar value.
Mark condition met for reported pIC50 of 7 or greater; mark condition not met for anything smaller.

Query: Quick check: does Cc1c(-c2ccc(Br)cc2)[nH]c2ncccc2c1=O have pIC50 greater than or equal to 7?
Result: condition not met

Query: Answer whether pIC50 of Cc1c(-c2ccc(Cc3ccc(OC(F)(F)F)cc3)cc2)[nH]c2ccc(O)cc2c1=O is greater than or equal to 7.
Result: condition not met

Query: Is the recorded value of pIC50 equal to or greater than 7 for this compound? Cc1c(-c2ccc(Cc3ccc(OC(F)(F)F)cc3)cc2)[nH]c2cc(F)c(F)cc2c1=O
Result: condition met

Query: Does pIC50 meet or surpass 7 for Cc1[nH]c2ccccc2c(=O)c1-c1ccc(Oc2ccc(OC(F)(F)F)cc2)cc1 ?
Result: condition met

Query: Please tell me: is the compound Cc1c(-c2ccc(Cc3ccc(OC(F)(F)F)cc3)cc2F)[nH]c2cc(Cl)ccc2c1=O at or over 7 in terms of pIC50?
Result: condition met

Query: Check if pIC50 >= 7 (inclusive). Item: O=c1c(Cl)c(-c2ccc(OC(F)(F)F)cc2)[nH]c2ccccc12
Result: condition not met

Query: Could you please find out whether Cc1c(-c2ccc(Cc3ccc(F)cc3)cc2)[nH]c2ncccc2c1=O has pIC50 that meets 7 or exceeds it?
Result: condition not met

Query: Reported pIC50 reaches at least 7 for O=c1cc(-c2ccc(Cc3ccc(OC(F)(F)F)cc3)cc2)[nH]c2cc(F)c(F)cc12 ?
Result: condition met

Query: Does Cc1c(-c2cccc(Cc3ccc(OC(F)(F)F)cc3)c2)[nH]c2ccc(Cl)cc2c1=O have a reported pIC50 of at least 7?
Result: condition met

Query: Answer whether pIC50 of O=c1cc(-c2ccc(O)cc2)[nH]c2ccccc12 is greater than or equal to 7.
Result: condition not met

Query: Answer whether pIC50 of O=c1cc(-c2ccc(Cc3ccc(OC(F)(F)F)cc3)cc2)[nH]c2cc(N3CCNCC3)ccc12 is greater than or equal to 7.
Result: condition not met

Query: Tell me whether pIC50 is at least 7 here: Cc1c(-c2ccc(Cc3ccc(OC(F)(F)F)cc3)cc2)[nH]c2cc(Cl)c(F)cc2c1=O
Result: condition met

Query: Please tell me: is the compound COc1cccc2[nH]c(-c3ccc(Cc4ccc(OC(F)(F)F)cc4)cc3)c(C)c(=O)c12 at or over 7 in terms of pIC50?
Result: condition not met

Query: Is pIC50 for Cc1c(-c2ccc(Cc3cccc(OCCN4CCOCC4)c3)cc2)[nH]c2ccccc2c1=O at or above 7?
Result: condition not met

Query: Say whether Cc1c(-c2cccc(Cc3ccc(OC(F)(F)F)cc3)c2)[nH]c2ccccc2c1=O shows pIC50 of 7 or more.
Result: condition met

Query: // inclusive: pIC50 at least 7? input: O=c1cc(-c2ccc(Cc3ccc(OC(F)(F)F)cc3)cc2)[nH]c2cc(O)c(F)cc12
Result: condition not met

Query: Determine whether this compound has pIC50 no lower than 7: COc1ccc(Cc2ccc(-c3[nH]c4ccccc4c(=O)c3C)cc2)cc1
Result: condition met

Query: State whether the measured pIC50 reaches 7, counting equality as reaching it, for COC(=O)c1ccc(Cc2ccc(-c3cc(=O)c4ccccc4[nH]3)cc2)cc1
Result: condition not met

Query: Decide: pIC50 of O=c1cc(-c2ccc(Cc3ccc(OC(F)(F)F)cc3)cc2)[nH]c2cc(Cl)c(Cl)cc12 >= 7?
Result: condition met
